system: A549; assay: Cytotoxicity of compound against A549 cell line; assay type: functional, cell-based; conditions: Homo sapiens
Exercise: state measured pIC50 for each of the compounds provided.
Answer as the number alone; pIC50 is minus log10 of concentration in mol/L.

Give its pIC50 value. Item: C=C/C=C\[C@H](C)[C@H](OC(N)=O)[C@@H](C)[C@H](O)[C@@H](C)C/C(C)=C\[C@H](C)[C@@H](O)[C@@H](C)/C=C\CCc1cccc(O)c1
6.72

Would you mind telling me what pIC50 value was observed for C=C/C=C\[C@H](C)[C@H](OC(N)=O)[C@@H](C)[C@H](O)[C@@H](C)C/C(C)=C\[C@H](C)[C@@H](O)[C@@H](C)/C=C\CCc1ccc(C)c(O)c1 ?
5.40

Which measured pIC50 value corresponds to C=C/C=C\[C@H](C)[C@H](OC(N)=O)[C@@H](C)[C@H](O)[C@@H](C)C/C(C)=C\[C@H](C)[C@@H](O)[C@@H](C)/C=C\CCc1cc(F)cc(F)c1 ?
6.00

Which pIC50 reading was recorded for the compound C=C/C=C\[C@H](C)[C@H](OC(N)=O)[C@@H](C)[C@H](O)[C@@H](C)C/C(C)=C\[C@H](C)[C@@H](O)[C@@H](C)/C=C\CCc1ccc(Oc2ccccc2)cc1 ?
5.00

So what's the measured pIC50 for this one? C=C/C=C\[C@H](C)[C@H](OC(N)=O)[C@@H](C)[C@H](O)[C@@H](C)C/C(C)=C\[C@H](C)[C@@H](O)[C@@H](C)/C=C\CCc1cccc(F)c1
6.19

What measured pIC50 goes with C=C/C=C\[C@H](C)[C@H](OC(N)=O)[C@@H](C)[C@H](O)[C@@H](C)C/C(C)=C\[C@H](C)[C@@H](O)[C@@H](C)/C=C\CCc1ccc(C)c(F)c1 ?
5.40

So what does the record say about pIC50 for C=C/C=C\[C@H](C)[C@H](OC(N)=O)[C@@H](C)[C@H](O)[C@@H](C)C/C(C)=C\[C@H](C)[C@@H](O)[C@@H](C)/C=C\CCc1cc(O)cc(O)c1 ?
6.51

pIC50 lookup needed for C=C/C=C\[C@H](C)[C@H](OC(N)=O)[C@@H](C)[C@H](O)[C@@H](C)C/C(C)=C\[C@H](C)[C@@H](O)[C@@H](C)/C=C\CCc1cccc(Cl)c1 , thanks.
6.24

Dear colleague, I am looking for the recorded pIC50 of the following compound: C=C/C=C\[C@H](C)[C@H](OC(N)=O)[C@@H](C)[C@H](O)[C@@H](C)C/C(C)=C\[C@H](C)[C@@H](O)[C@@H](C)/C=C\CCc1ccsc1
5.40

Could you share which pIC50 value was measured for C=C/C=C\[C@H](C)[C@H](OC(N)=O)[C@@H](C)[C@H](O)[C@@H](C)C/C(C)=C\[C@H](C)[C@@H](O)[C@@H](C)/C=C\CCc1cccc(OC)c1 ?
6.22

# input compound: C=C/C=C\[C@H](C)[C@H](OC(N)=O)[C@@H](C)[C@H](O)[C@@H](C)C/C(C)=C\[C@H](C)[C@@H](O)[C@@H](C)/C=C\CCc1sccc1C ; wanted: its pIC50
6.10

What value of pIC50 has been recorded for this entry: C=C/C=C\[C@H](C)[C@H](OC(N)=O)[C@@H](C)[C@H](O)[C@@H](C)C/C(C)=C\[C@H](C)[C@@H](O)[C@@H](C)/C=C\CCc1ccccc1
6.29

Consider the compound C=C/C=C\[C@H](C)[C@H](OC(N)=O)[C@@H](C)[C@H](O)[C@@H](C)C/C(C)=C\[C@H](C)[C@@H](O)[C@@H](C)/C=C\CCc1cccc(O)c1C and give its measured pIC50.
6.04

The reported numbers originate from ChEMBL document CHEMBL1148238.
